Data origin, for the record: paper PMC10937556

# assay_overview: ABTS free radical scavenging assay
# test_conditions: 250 µg/mL
Lab note: anything with ABTS % inhibition at or over 80% counts as true (1); the rest go in false (0).

Illustrative cases are given below, each with its answer.
compound: O=C1O[C@H]([C@@H](O)CO)C(O)=C1O [AA, ascorbic acid, reference compound]
assigned_class: true (1)
--
compound: Cc1cnc(O)nc1O [Compound 1, 5-methylpyrimidine-24,4-diol]
assigned_class: true (1)
--
compound: C=Cc1ccc(O)cc1OC [Compound 4, 3-methoxy-4-vinylphenol]
assigned_class: false (0)

Task: Confirm if ABTS % inhibition reported for the compound C=Cc1cc(OC)c(O)c(OC)c1 [Compound 5, 2,6-dimethoxy-4-vinylphenol] is 80% or above.
Output: false (0)

Task: Continue with Cc1ccc(C(C)C)c(O)c1 [Compound 3, 2-isopropyl-5-methylphenol]
Output: false (0)

----------
# assay_target: 5-LOX (Homo sapiens, UniProt P09917)
# Construct: purchased Sigma-Aldrich (local distributor) 437996
# assay_overview: 5-Lipoxygenase (5-LOX) inhibition assay
# Assay type: biochemical
# test_conditions: 500 µg/mL; read-out: % 5-LOX inhibitions
experimental_readout: inhibition at 500 µg/mL (%)
Write down the numeric answer in % and omit the unit.

See these solved cases before continuing.
compound: C=Cc1ccc(O)cc1OC
experimental_readout: inhibition at 500 µg/mL
readout_number: 80.8
//
compound: Cc1cnc(O)nc1O
experimental_readout: inhibition at 500 µg/mL
readout_number: 82.5
//
compound: C=Cc1cc(OC)c(O)c(OC)c1
experimental_readout: inhibition at 500 µg/mL
readout_number: 71.3

Task: Item Cc1ccc(C(C)C)c(O)c1 has what recorded inhibition at 500 µg/mL?
Output: 67.4

Task: Continue with CC1=C(O)C(=O)C(O)CO1 (centres unmarked)
Output: 78.6

----------
# assay_target: 5-LOX (Homo sapiens, UniProt P09917)
# Construct: purchased Sigma-Aldrich (local distributor) 437996
# Sequence (P09917 1-674): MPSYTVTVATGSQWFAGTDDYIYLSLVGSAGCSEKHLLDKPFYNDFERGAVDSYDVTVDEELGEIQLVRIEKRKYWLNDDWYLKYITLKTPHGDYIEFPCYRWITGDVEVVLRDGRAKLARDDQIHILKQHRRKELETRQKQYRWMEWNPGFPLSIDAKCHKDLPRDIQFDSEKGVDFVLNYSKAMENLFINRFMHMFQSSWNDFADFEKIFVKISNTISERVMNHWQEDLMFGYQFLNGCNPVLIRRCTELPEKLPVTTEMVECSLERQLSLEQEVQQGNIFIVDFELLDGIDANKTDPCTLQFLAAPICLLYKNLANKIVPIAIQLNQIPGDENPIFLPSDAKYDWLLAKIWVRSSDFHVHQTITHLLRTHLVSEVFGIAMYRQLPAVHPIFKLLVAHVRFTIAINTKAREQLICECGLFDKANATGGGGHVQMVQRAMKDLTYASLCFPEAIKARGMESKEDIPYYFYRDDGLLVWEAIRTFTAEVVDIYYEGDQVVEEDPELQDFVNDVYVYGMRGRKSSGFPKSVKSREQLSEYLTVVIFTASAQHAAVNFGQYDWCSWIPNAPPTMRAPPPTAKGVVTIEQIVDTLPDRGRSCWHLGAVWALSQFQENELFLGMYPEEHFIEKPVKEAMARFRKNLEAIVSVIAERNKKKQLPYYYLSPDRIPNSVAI
# assay_overview: 5-Lipoxygenase (5-LOX) inhibition assay
# Type: biochemical
# test_conditions: 62.50 μg/mL; read-out: % 5-LOX inhibitions
# Description: The 5-LOX inhibitory experiments on H. digitata samples were carried out as per published protocol ([Pervaiz et al., 2022]). Several concentrations of plant samples were made, with concentrations ranging from 31.25 to 1,000 μg/mL. […] Plant samples of varied quantities were dissolved in 250 µL of phosphate buffer, and then, 250 µL of the lipoxygenase enzyme solution was added and incubated for 5 min at room temperature. […] The absorbance at 234 nm was observed. […]
experimental_readout: inhibition at 62.5 µg/mL (%)
Write down the numeric answer in % and omit the unit.

compound: Cc1ccc(C(C)C)c(O)c1
experimental_readout: inhibition at 62.5 µg/mL
readout_number: 51.9
--
compound: C=Cc1ccc(O)cc1OC
experimental_readout: inhibition at 62.5 µg/mL
readout_number: 59.8
--
compound: C=Cc1cc(OC)c(O)c(OC)c1
experimental_readout: inhibition at 62.5 µg/mL
readout_number: 49.9
--
compound: Cc1cnc(O)nc1O
experimental_readout: inhibition at 62.5 µg/mL
readout_number: 65.7

Consider now this further compound.
Task: Item CC1=C(O)C(=O)C(O)CO1 (centres unmarked) has what recorded inhibition at 62.5 µg/mL?
Output: 61.4

----------
# assay_overview: ABTS free radical scavenging assay
# test_conditions: 500 µg/mL
Lab note: anything with ABTS % inhibition at or over 80% counts as true; the rest go in false.

Illustrative cases are given below, each with its answer.
molecule: Cc1cnc(O)nc1O [Compound 1, 5-methylpyrimidine-24,4-diol]
assigned_class: true

molecule: C=Cc1cc(OC)c(O)c(OC)c1 [Compound 5, 2,6-dimethoxy-4-vinylphenol]
assigned_class: false

Task: Confirm if ABTS % inhibition reported for the molecule Cc1ccc(C(C)C)c(O)c1 [Compound 3, 2-isopropyl-5-methylphenol] is 80% or above.
Output: true

Task: Continue with C=Cc1ccc(O)cc1OC [Compound 4, 3-methoxy-4-vinylphenol]
Output: false

Task: Continue with O=C1O[C@H]([C@@H](O)CO)C(O)=C1O [AA, ascorbic acid, reference compound]
Output: true

----------
# assay_target: COX-2 (Homo sapiens, UniProt P35354)
# Construct: purchased Sigma-Aldrich (local distributor) C0858
# Sequence (P35354 18-604): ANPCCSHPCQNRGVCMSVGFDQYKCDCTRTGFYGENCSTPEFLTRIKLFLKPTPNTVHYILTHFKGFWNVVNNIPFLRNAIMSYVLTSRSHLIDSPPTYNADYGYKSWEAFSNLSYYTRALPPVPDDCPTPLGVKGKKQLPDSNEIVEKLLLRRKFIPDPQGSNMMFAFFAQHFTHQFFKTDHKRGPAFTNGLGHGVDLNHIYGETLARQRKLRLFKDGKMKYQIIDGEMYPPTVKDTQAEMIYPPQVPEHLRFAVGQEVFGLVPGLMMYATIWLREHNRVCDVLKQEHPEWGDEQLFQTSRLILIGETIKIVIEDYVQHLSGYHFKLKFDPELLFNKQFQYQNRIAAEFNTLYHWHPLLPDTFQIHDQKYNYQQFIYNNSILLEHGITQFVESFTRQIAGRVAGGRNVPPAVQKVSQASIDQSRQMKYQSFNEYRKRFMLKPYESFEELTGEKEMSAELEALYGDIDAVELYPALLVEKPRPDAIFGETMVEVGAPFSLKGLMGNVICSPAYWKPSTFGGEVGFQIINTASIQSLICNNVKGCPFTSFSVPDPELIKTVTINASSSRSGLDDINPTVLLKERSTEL
# assay_overview: Cyclooxygenase COX-2 inhibition assay
# Assay type: biochemical
# test_conditions: 62.50 μg/mL
experimental_readout: inhibition at 62.5 µg/mL (%)
Write down the numeric answer in % and omit the unit.

See these solved cases before continuing.
compound: C=Cc1cc(OC)c(O)c(OC)c1 [Compound 5, 2,6-dimethoxy-4-vinylphenol]
reading_unit: %
inhibition at 62.5 µg/mL: 46.9
//
compound: Cc1ccc(C(C)C)c(O)c1 [Compound 3, 2-isopropyl-5-methylphenol]
reading_unit: %
inhibition at 62.5 µg/mL: 53
//
compound: Cc1cnc(O)nc1O [Compound 1, 5-methylpyrimidine-24,4-diol]
reading_unit: %
inhibition at 62.5 µg/mL: 61.1

Task: Item C=Cc1ccc(O)cc1OC [Compound 4, 3-methoxy-4-vinylphenol] has what recorded inhibition at 62.5 µg/mL?
Output: 55.6

Task: Continue with CC1=C(O)C(=O)C(O)CO1 (centres unmarked) [Compound 2]
Output: 58.1
